src = patent US7118895B2

# aglycon values compiled below
- System: β-Glucosidase derived from almond
- test-protocol: Reactivity toward various isoflavone glycosides (HPLC)
- Format: biochemical
- Design: unit not given here
- measurement-conditions: Reaction time 0 h; 55 °C, pH 4.0
readout-label: aglycon

> print(dat)
                              sample.smiles  endpoint.result
1  COc1cc2c(=O)c(-c3ccc(O)cc3)coc2cc1O[C@@H]1O[C@H](COC(C)=O)[C@@H](O)[C@H](O)[C@H]1O                0
2  COc1cc2c(=O)c(-c3ccc(O)cc3)coc2cc1O[C@@H]1O[C@H](COC(=O)CC(=O)O)[C@@H](O)[C@H](O)[C@H]1O                0
3  O=C(O)CC(=O)OC[C@H]1O[C@@H](Oc2ccc3c(=O)c(-c4ccc(O)cc4)coc3c2)[C@H](O)[C@@H](O)[C@@H]1O                0
